- Tested on: MCF7
- METHOD SUMMARY: NCI tumour cell line growth inhibition, 48 h
Structures can show the parent of a compound that is named as a salt. The source made the active and inactive calls. Rule as the data show it: active = GI50 up to about 1.1 µM and inactive = higher. Non-standard residues stand in square brackets, D forms with d. Residues, ends and D or L forms follow the SMILES beside them. *: point of attachment. Ac5c = NC1(C(=O)O)CCCC1; Boc = CC(C)(C)OC(=O)*; tBu = CC(C)(C)*
Labels: active, inactive

[
  {
    "COMPOUND": "CC(C)(C)/C(O)=C\\c1nc2cc(F)c(F)cc2[nH]c1=O",
    "CLASS NAME": "inactive"
  },
  {
    "COMPOUND": "NC(CC(=O)O)(Cc1ccccc1)C(=O)O (stereo not given)",
    "CLASS NAME": "inactive"
  },
  {
    "COMPOUND": "O=C(c1ccsc1)c1nccc2c1cnc1ccccc12",
    "CLASS NAME": "inactive"
  },
  {
    "COMPOUND": "Cc1ccc(/C=C2/N/C(=N\\N=C/C(O)C(O)C(O)CO)NC2=O)cc1 (stereo not given)",
    "CLASS NAME": "inactive"
  },
  {
    "COMPOUND": "Cc1ccc2c(c1)[nH]c(=S)n2C=C1C(=O)CC(C)(C)CC1=O",
    "CLASS NAME": "inactive"
  },
  {
    "COMPOUND": "Cc1nn(-c2ccccn2)c2c1C(SC#N)=C(C=O)CC2",
    "CLASS NAME": "inactive"
  },
  {
    "COMPOUND": "COc1ccc2c3c1O[C@H]1C[C@@H](O)C=C[C@@]31CCN(C)C2",
    "CLASS NAME": "inactive"
  },
  {
    "COMPOUND": "O=C1CCCNn2c(nc3ncccc3c2=O)N1",
    "CLASS NAME": "inactive"
  },
  {
    "COMPOUND": "COC(=O)c1ccc2n1C1CC3CC(CC2C3)C1",
    "CLASS NAME": "inactive"
  },
  {
    "COMPOUND": "O=[N+]([O-])c1cccc2nc3ccccc3c(NCCc3cccc[n+]3[O-])c12",
    "CLASS NAME": "active"
  },
  {
    "COMPOUND": "CN1[C@@H]2C[C@@H](OC(=O)[C@H](CO)c3ccccc3)C[C@H]1[C@@H]1O[C@@H]12 [SCOPOLAMINE HYDROBROMIDE]",
    "CLASS NAME": "inactive"
  },
  {
    "COMPOUND": "Clc1nc(Cl)c(Cc2ccccc2)c(Cl)n1",
    "CLASS NAME": "inactive"
  },
  {
    "COMPOUND": "CC(OC(C)(C)C)C(NC(=O)C(CCCCNC(=O)OC(C)(C)C)NC(=O)C(Cc1c[nH]c2ccccc12)NC(=O)C(N)Cc1ccccc1)C(=O)NC(Cc1ccccc1)C(=O)NC1(C(=O)O)CCCC1 (stereo not given) (H-FWK(Boc)T(tBu)F[Ac5c]-OH; configuration not given here)",
    "CLASS NAME": "inactive"
  },
  {
    "COMPOUND": "Cc1cc(/N=C/c2ccc(Cl)cc2)n(-c2ccccc2)n1",
    "CLASS NAME": "inactive"
  },
  {
    "COMPOUND": "O=S1(=O)C[C@@H](NCc2ccccc2)[C@H](NCc2ccccc2)C1",
    "CLASS NAME": "inactive"
  },
  {
    "COMPOUND": "NCc1ccccc1.O=C(O)NCc1ccccc1",
    "CLASS NAME": "inactive"
  },
  {
    "COMPOUND": "Cc1c(C#N)c2nnn(-c3ccc([N+](=O)[O-])cc3)c(=O)n2c1-c1ccccc1",
    "CLASS NAME": "inactive"
  },
  {
    "COMPOUND": "COc1c(CC=C(C)C)c(O)c(C(CC(C)C)c2c(O)c3c(c(C(C)=O)c2O)OC(C(C)(C)O)C3)c(O)c1C(C)=O (stereo not given)",
    "CLASS NAME": "inactive"
  },
  {
    "COMPOUND": "Cc1cc(S(=O)(=O)O)c(NC(=O)c2oc3cc(O)ccc3c(=O)c2C)cc1Cl",
    "CLASS NAME": "inactive"
  },
  {
    "COMPOUND": "CCOP(=O)(/C=C/n1ccc(N)nc1=O)OCC",
    "CLASS NAME": "inactive"
  }
]
